# assay.system: P. falciparum apicoplast DNA polymerase (Pf-apPOL) (Plasmodium falciparum)
# Sequence (Q8ILY1 entry or part of it): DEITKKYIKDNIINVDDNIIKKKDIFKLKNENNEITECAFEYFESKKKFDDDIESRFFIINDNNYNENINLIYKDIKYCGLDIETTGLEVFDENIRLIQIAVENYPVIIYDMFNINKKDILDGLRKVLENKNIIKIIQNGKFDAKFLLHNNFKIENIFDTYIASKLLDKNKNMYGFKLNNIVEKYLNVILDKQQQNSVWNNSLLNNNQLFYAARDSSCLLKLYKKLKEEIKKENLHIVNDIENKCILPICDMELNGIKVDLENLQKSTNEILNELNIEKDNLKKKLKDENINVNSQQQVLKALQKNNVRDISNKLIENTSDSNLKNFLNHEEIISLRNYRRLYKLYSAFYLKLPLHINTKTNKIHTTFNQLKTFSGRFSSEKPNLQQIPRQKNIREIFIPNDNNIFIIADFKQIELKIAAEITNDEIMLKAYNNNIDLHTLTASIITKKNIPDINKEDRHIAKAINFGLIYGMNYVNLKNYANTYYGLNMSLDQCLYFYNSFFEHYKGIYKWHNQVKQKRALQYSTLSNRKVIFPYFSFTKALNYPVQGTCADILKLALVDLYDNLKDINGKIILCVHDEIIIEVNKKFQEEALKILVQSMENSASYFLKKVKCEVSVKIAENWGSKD
# assay: Fluorescence-based high-throughput DNA polymerase assay (molecular beacon), primary screen and dose-response
# Format: biochemical
# measurement.parameters: DRC-1; read at 90'; concentration 10
quantity: % inhibition Apol 90' 10

# example entries with known answers
molecule	% inhibition Apol 90' 10
C#CC(C=CC)OC(=O)c1ccccc1C(=O)O (stereo not drawn) [Molecule 61, CC=CC(OC(=O)c1ccccc1C(=O)O)C#C]	16.9852%
Cc1ccsc1Cn1c(C)ccc1C [Molecule 70, Cc1ccsc1Cn1c(C)ccc1C]	8.027%
O=C(c1ccccc1)N1CCc2c(nc3cc(-c4ccccc4)[nH]n3c2=O)C1 [Molecule 30]	37.2459%
O=C1CSC2=NC3=C(CCc4ccccc43)C(c3cccs3)N12 (stereo not drawn) [Molecule 59, O=C1CSC2=NC3=C(C(N12)c1cccs1)CCc1c3cccc1]	22.0098%
Cc1cc2[nH]c(C(=O)Nc3ccc(F)cc3)c(CN3CCOCC3)c2s1 [Molecule 60]	13.5518%
Nc1cc(Oc2ccc(O)c(N)c2)ccc1O [KU0034728]	34.847%

Ask | // query % inhibition Apol 90' 10 value for entry COc1ccc(C2CC(c3ccc(Cl)cc3Cl)Nc3nc(N)nn32)cc1OC (stereo not drawn) [Molecule 43]
Reply | 43%

Ask | Item: CCCc1ccc(Oc2coc3cc(OC)ccc3c2=O)cc1 [KU0193249]
Reply | 17.4321%

Ask | Item: Cc1nc(C)c2c(n1)N(CC1CCCCC1)C(=O)CC2 [KU0218606]
Reply | 42.478%

Ask | Item: COc1ccc(/C=C/c2cc(C(=O)O)c3ccccc3n2)cc1 [Molecule 5, COc1ccc(cc1)/C=C/c1nc2ccccc2c(c1)C(=O)O]
Reply | 55.1819%

Ask | Item: COc1ccccc1CC(=O)N1CCc2c(nc3cc(-c4ccccc4Cl)[nH]n3c2=O)C1 [Molecule 49]
Reply | 20%

Ask | Item: CC(=O)Nc1cc(C(=O)c2cccs2)nn(-c2ccc(Cl)cc2)c1=O [KU0267905]
Reply | 7.904%
